Recorded measurements of koff, one per entry
Biological target: T1, V domain of human CD33 (human, UniProt P20138 18-139, limits assumed)
T1 construct: recombinant, fully glycosylated V domain; also called Human CD33 V domain
Test: SPR, Fab captured, 37C;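 further: Anti-CD33 Fabs captured on anti-Fab chip, soluble monomeric CD33 or its domains flowed over at several concentrations, double-referenced data fitted 1:1, Kd taken as koff/kon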
Express the result in s⁻¹ but write the number alone.

# Binder, koff, s⁻¹
data = [
    ("ADI-11839 Fab (Fab, V domains shown, Fab fragment; also called Ab28) VH: QVQLVQSGAEVKKPGASVKVSCKASGYTFSNYYMHWVRQAPGQGLEWMGWINPFSGGTRYAQKFQGRVTMTRDTSTSTVYMELSSLRSEDTAVYYCARDVGSSAYYYMDVWGKGTTVTVSS VL: DIQMTQSPSSVSASVGDRVTITCEASKGISSWLAWYQQKPGKAPKLLIYAASDLQSGVPSRFSGSGSGTDFTLTISSLQPEDFATYYCQQAFLFPPTFGGGTKVEIK", 0.41),
    ("ADI-11776 Fab (Fab, V domains shown, Fab fragment; also called Ab3; H76) VH: EVQLLESGGGLVQPGGSLRLSCAASGFTFSKYTMSWVRQAPGKGLEWVSAIVGSGESTYFADSVKGRFTISRDNSKNTLYLQMNSLRAEDTAVYYCAREGGPYYDSSGYFVYYGMDVWGQGTTVTVSS VL: DIQMTQSPSTLSASVGDRVTITCRASQSISSWLAWYQQKPGKAPKLLIYKASSLESGVPSRFSGSGSGTEFTLTISSLQPDDFATYYCQQYDDLPTFGGGTKVEIK", 0.00143),
    ("ADI-10159 Fab (Fab, V domains shown, Fab fragment; also called Ab1; G59) VH: EVQLVESGGGLVQPGGSLRLSCAASGFTFSSYGMSWVRQAPGKGLEWVANIKQDGSEKYYVDSVKGRFTISRDNAKNSLYLQMNSLRAEDTAVYYCAREGGPYYDSSGYFVYYGMDVWGQGTTVTVSS VL: DIQMTQSPSTLSASVGDRVTITCRASQSISSWLAWYQQKPGKAPKLLIYDASSLESGVPSRFSGSGSGTEFTLTISSLQPDDFATYYCQQYESFPTFGGGTKVEIK", 0.005),
    ("ADI-11835 Fab (Fab, V domains shown, Fab fragment; also called Ab10; I35) VH: QLQLQESGPGLVKPSETLSLTCTVSGGSISSTDYYWGWIRQPPGKGLEWIGSIGYSGTYYNPSLKSRVTISVDTSKNQFSLKLSSVTAADTAVYYCARETAHDVHGMDVWGQGTTVTVSS VL: EIVLTQSPATLSLSPGERATLSCRASHSVYSYLAWYQQKPGQAPRLLIYDASNRATGIPARFSGSGSGTDFTLTISSLEPEDFAVYYCQQYDNLPTFGGGTKVEIK", 0.00868),
    ("ADI-11809 Fab (Fab, V domains shown, Fab fragment; also called Ab6) VH: EVQLVESGGGLVQPGGSLRLSCAASGFTFPSYWMSWVRQAPGKGLEWVATIKRDGSEKGYVDSVKGRFTISRDNAKNSLYLQMNSLRAEDTAVYYCARPLNAGELDVWGQGTMVTVSS VL: DIQMTQSPSTLSASVGDRVTITCRASQSISSWLAWYQQKPGKAPKLLIYEASSLESGVPSRFSGSGSGTEFTLTISSLQPDDFATYYCQQSQSYPPITFGGGTKVEIK", 0.000769),
]

# koff of ADI-11830 Fab (Fab, V domains shown, Fab fragment; also called Ab9) VH: EVQLVESGGGLVQPGGSLRLSCAASGFTFSSYWMSWVRQAPGKGLEWVANINTDGSEVYYVDSVKGRFTISRDNAKNSLYLQMNSLRAEDTAVYYCARDVGPGIAYQGHFDYWGQGTLVTVSS VL: DIQMTQSPSSLSASVGDRVTITCRASQVIYSYLNWYQQKPGKAPKLLIYAASSLKSGVPSRFSGSGSGTDFTLTISSLQPEDFATYYCQQVYDTPLTFGGGTKVEIK = 0.0299

# koff of ADI-10164 Fab (Fab, V domains shown, Fab fragment; also called Ab18) VH: QVQLQESGPGLVKPSETLSLTCAVSGYSISSGYYWGWIRQPPGKGLEWIGSIYHSGSTNYNPSLKSRVTISVDTSKNQFSLKLSSVTAADTAVYYCARLPPWFGFSYFDLWGRGTLVTVSS VL: EIVLTQSPATLSLSPGERATLSCRASQSVSSYLAWYQQKPGQAPRLLIYDASNRATGIPARFSGSGSGTDFTLTISSLEPEDFAVYYCQQVDNYPPTFGGGTKVEIK = 0.37
